Experiment: Half life in rat
Type: ADME, organism-based
Details: in vivo
Outcome measure: half-life (h)

CC(C)c1nnc2ccc(-c3ocnc3-c3ccc(F)c(Cl)c3)cn12 : 0.9
CC(C)(C)c1nnc2ccc(-c3ocnc3-c3cc(F)c(F)cc3F)cn12 : 2.6
CC(C)c1nnc2ccc(-c3ocnc3-c3cccc(Cl)c3)cn12 : 1.6
CC(C)c1nnc2ccc(-c3ocnc3-c3ccc(F)cc3)cn12 : 0.7

---

Target: Ribosomal protein S6 kinase alpha-5 (Homo sapiens, UniProt O75582)
Sequence (O75582 whole entry): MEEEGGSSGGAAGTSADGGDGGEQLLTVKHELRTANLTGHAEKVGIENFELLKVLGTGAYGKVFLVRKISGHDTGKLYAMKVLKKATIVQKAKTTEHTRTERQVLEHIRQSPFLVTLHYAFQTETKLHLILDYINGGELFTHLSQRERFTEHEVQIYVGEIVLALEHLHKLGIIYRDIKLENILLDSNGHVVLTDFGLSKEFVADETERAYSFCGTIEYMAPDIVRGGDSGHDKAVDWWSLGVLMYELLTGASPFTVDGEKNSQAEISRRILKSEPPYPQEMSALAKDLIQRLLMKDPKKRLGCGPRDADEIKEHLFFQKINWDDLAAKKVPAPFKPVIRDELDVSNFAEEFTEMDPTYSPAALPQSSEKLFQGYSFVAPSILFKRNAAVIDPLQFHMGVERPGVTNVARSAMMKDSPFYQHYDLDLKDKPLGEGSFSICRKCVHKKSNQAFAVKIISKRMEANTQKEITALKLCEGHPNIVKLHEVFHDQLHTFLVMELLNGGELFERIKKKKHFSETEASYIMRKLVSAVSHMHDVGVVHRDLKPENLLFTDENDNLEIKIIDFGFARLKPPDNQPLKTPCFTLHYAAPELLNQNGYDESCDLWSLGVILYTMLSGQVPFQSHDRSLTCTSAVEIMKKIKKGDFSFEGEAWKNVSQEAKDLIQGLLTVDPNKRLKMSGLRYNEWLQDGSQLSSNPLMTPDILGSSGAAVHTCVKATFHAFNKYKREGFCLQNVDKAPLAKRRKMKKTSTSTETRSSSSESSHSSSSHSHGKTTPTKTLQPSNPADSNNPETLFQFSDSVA
pIC50: −log10 of the molar value.
Outcome measure: pIC50

CC(C)c1nnc2ccc(-c3ocnc3-c3ccc(F)cc3Cl)cn12 : < 5.00

---

Target: Tyrosine-protein kinase Lck (Homo sapiens)
Sequence (P06239 whole entry): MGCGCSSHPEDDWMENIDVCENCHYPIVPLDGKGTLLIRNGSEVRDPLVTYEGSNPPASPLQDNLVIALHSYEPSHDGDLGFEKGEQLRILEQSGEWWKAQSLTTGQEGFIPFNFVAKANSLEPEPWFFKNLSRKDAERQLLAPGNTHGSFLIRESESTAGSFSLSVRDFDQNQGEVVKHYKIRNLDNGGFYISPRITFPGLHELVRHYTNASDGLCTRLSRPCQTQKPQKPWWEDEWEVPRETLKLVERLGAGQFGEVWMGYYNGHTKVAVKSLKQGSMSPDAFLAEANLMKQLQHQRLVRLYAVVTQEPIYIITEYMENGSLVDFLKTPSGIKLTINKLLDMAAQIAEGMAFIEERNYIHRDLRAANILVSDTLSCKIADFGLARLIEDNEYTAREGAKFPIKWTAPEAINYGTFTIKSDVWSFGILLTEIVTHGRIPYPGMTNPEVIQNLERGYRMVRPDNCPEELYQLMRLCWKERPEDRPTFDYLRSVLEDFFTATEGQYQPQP
pIC50: −log10 of the molar value.
Outcome measure: pIC50

CCNc1nnc2ccc(-c3ocnc3-c3ccc(F)cc3)cn12 : < 5.00

---

Molecular target: Mitogen-activated protein kinase 14 (Homo sapiens, UniProt Q16539)
Sequence (Q16539 whole entry): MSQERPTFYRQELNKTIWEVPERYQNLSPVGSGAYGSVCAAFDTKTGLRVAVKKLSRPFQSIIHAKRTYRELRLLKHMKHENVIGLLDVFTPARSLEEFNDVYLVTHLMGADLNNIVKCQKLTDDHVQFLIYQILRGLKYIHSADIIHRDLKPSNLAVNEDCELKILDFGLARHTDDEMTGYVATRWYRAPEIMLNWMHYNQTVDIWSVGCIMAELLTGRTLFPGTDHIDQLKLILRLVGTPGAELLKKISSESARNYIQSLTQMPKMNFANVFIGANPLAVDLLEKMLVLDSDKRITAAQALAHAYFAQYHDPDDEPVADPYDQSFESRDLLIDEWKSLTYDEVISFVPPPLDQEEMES
Assay: Inhibition of p38alpha
Under this convention, YES denotes IC50 strictly below 5 nM and NO denotes IC50 at or above 5 nM.

CC(C)c1nnc2ccc(-c3ocnc3-c3cc(F)c(F)c(F)c3)cn12 : YES
CC(C)c1nnc2ccc(-c3ocnc3-c3cc(F)c(F)cc3Cl)cn12 : NO
CC(C)c1nnc2ccc(-c3ocnc3-c3ccc(F)cc3F)cn12 : YES
CC1(c2nnc3ccc(-c4ocnc4-c4ccc(F)cc4F)cn23)CC1 : YES
CC(C)c1nnc2ccc(-c3ocnc3-c3ccc(F)cc3Cl)cn12 : YES
CC(C)c1nnc2ccc(-c3ocnc3-c3ccc(F)c(F)c3F)cn12 : NO

---

Biological target: UniProtKB P24941
Outcome measure: IC50

CCNc1nnc2ccc(-c3ocnc3-c3ccc(F)cc3)cn12 : > 10 µM
CC(C)(C)c1nnc2ccc(-c3ocnc3-c3cc(F)c(F)cc3F)cn12 : > 10 µM

---

Test: Solubility in PBS buffer at ph 6.5
Assay type: physicochemical
Outcome measure: log10(solubility) (log10 of the value in µg/mL)

CC(C)(C)c1nnc2ccc(-c3ocnc3-c3cc(F)c(F)cc3F)cn12 : 1.61
CC(C)c1nnc2ccc(-c3ocnc3-c3ccc(F)cc3Cl)cn12 : 1.91
CC(C)c1nnc2ccc(-c3ocnc3-c3cccc(Cl)c3)cn12 : 0.72
CC(C)c1nnc2ccc(-c3ocnc3-c3ccc(F)cc3)cn12 : 1.47
CC(C)c1nnc2ccc(-c3ocnc3-c3cc(F)ccc3F)cn12 : 0.91
CC(C)c1nnc2ccc(-c3ocnc3-c3ccc(F)c(Cl)c3)cn12 : 0.45

---

Each entry below lists one item and its recorded Vd value.
Assay: Volume of distribution in monkey
Format: ADME, organism-based, Macaca mulatta
Settings: rhesus monkey, in vivo; read-out: Vdss
Outcome measure: Vd (L/kg)

CC(C)c1nnc2ccc(-c3ocnc3-c3cc(F)ccc3F)cn12 : 1.3
CC(C)c1nnc2ccc(-c3ocnc3-c3ccc(F)cc3)cn12 : 1.8
CC(C)c1nnc2ccc(-c3ocnc3-c3ccc(F)c(Cl)c3)cn12 : 1.4
CC(C)(C)c1nnc2ccc(-c3ocnc3-c3cc(F)c(F)cc3F)cn12 : 1.2
CC(C)c1nnc2ccc(-c3ocnc3-c3cccc(Cl)c3)cn12 : 1

---

Biological target: RAC-alpha serine/threonine-protein kinase (Homo sapiens, UniProt P31749)
Sequence (P31749 whole entry): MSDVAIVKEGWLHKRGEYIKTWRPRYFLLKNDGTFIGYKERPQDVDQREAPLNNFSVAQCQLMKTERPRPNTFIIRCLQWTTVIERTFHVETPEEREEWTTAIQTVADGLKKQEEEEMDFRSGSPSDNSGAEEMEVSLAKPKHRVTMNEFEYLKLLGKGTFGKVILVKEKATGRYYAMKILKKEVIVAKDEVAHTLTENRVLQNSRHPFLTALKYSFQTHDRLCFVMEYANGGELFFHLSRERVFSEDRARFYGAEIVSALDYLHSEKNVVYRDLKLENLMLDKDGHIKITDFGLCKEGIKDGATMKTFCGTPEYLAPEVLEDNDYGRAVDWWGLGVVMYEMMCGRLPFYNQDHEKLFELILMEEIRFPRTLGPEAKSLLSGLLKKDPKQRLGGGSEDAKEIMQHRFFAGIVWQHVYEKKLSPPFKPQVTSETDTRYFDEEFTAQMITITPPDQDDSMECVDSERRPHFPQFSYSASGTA
Outcome measure: IC50

CC(C)(C)c1nnc2ccc(-c3ocnc3-c3cc(F)c(F)cc3F)cn12 : > 10 µM
CC(C)c1nnc2ccc(-c3c[nH]nc3-c3cc(F)ccc3F)cn12 : > 10 µM
CC(C)c1nnc2ccc(-c3ocnc3-c3cc(F)c(F)cc3F)cn12 : > 10 µM

The measurements presented in this section are drawn from ChEMBL document CHEMBL1145312.
